assayedTarget: BK receptors
assayText: Radioligand competition binding assay with [3H]BK in rat brain membranes
appliedConditions: pH 6.8, rat brain membranes, 1 nM [3H]BK
Where a SMILES comes first, the peptide text is derived from it. [ ]: non-standard residue; d: D form. Orn = NCCC[C@H](N)C(=O)O
We begin with a simple list: items and their reported log[IC50], BK receptors, [3H]BK.
Please reply with the value in numeric form only.

compound	reportedMeasurement
CC[C@H](C)[C@H](NC(=O)[C@H](CCCN)NC(=O)[C@H](CC(C)C)NC(=O)[C@@H](N)Cc1ccccc1)C(=O)N[C@@H](CCCN)C(=O)N1CCC[C@H]1C(=O)N[C@@H](CCCN)C(=O)O [compound 6, H-Phe-Leu-Orn-Ile-Orn-Pro-Orn-OH] (H-FL[Orn]I[Orn]P[Orn]-OH)	−6.29

Find the recorded log[IC50], BK receptors, [3H]BK belonging to CC[C@H](C)[C@H](NC(=O)[C@@H](CCCNC(=N)N)NC(=O)[C@H](CC(C)C)NC(=O)[C@@H](N)Cc1ccccc1)C(=O)N[C@@H](CCCNC(=N)N)C(=O)N1CCC[C@H]1C(=O)N[C@@H](CCCCN)C(=O)O [compound 15, H-Phe-Leu-D-Arg-Ile-Arg-Pro-Lys-OH] and report it.
−6.51

----------
assayText: In vitro stability in rat plasma
Assay type: in vitro ADME
appliedConditions: rat, plasma, t1/2 in rat plasma, 37 °C, 24 h study
Where a SMILES comes first, the peptide text is derived from it. [ ]: non-standard residue; d: D form. Nle = CCCC[C@H](N)C(=O)O
Label true when half-life < 3 h; otherwise false.

compound	cat
CC[C@@H](C)[C@@H](NC(=O)[C@H](CCCNC(=N)N)NC(=O)[C@H](CC(C)C)NC(=O)[C@@H](N)Cc1ccccc1)C(=O)N[C@@H](CCCNC(=N)N)C(=O)N1CCC[C@H]1C(=O)N[C@@H](CCCCN)C(=O)O	false
CCCC[C@H](NC(=O)[C@H](Cc1ccccc1)NC(C)=O)C(=O)N[C@@H](CCCNC(=N)N)C(=O)N[C@@H](CCCC)C(=O)N[C@@H](CCCNC(=N)N)C(=O)N1CCC[C@H]1C(=O)N[C@@H](CCCNC(=N)N)C(=O)O [compound 5, Ac-Phe-Nle-Arg-Nle-Arg-Pro-Arg-OH] (Ac-F[Nle]R[Nle]RPR-OH)	false
CCCC[C@H](NC(=O)[C@H](CCCNC(=N)N)NC(=O)[C@H](CCCC)NC(=O)[C@@H](N)Cc1ccccc1)C(=O)N[C@@H](CCCNC(=N)N)C(=O)N1CCC[C@H]1C(=O)N[C@@H](CCCNC(=N)N)C(=O)O [compound 4, H-Phe-Nle-Arg-Nle-Arg-Pro-Arg-OH] (H-F[Nle]R[Nle]RPR-OH)	true
CC[C@H](C)[C@H](NC(=O)[C@H](CCCNC(=N)N)NC(=O)[C@H](CC(C)C)NC(=O)[C@@H](N)Cc1ccccc1)C(=O)N[C@@H](CCCNC(=N)N)C(=O)N1CCC[C@H]1C(=O)N[C@@H](CCCCN)C(=O)O	true
CC[C@H](C)[C@H](NC(=O)[C@@H](CCCNC(=N)N)NC(=O)[C@H](CC(C)C)NC(=O)[C@@H](N)Cc1ccccc1)C(=O)N[C@@H](CCCNC(=N)N)C(=O)N1CCC[C@H]1C(=O)N[C@@H](CCCCN)C(=O)O	false
CC[C@H](C)[C@H](NC(=O)[C@H](CCCNC(=N)N)NC(=O)[C@H](CC(C)C)NC(=O)[C@H](Cc1ccccc1)NC)C(=O)N[C@@H](CCCNC(=N)N)C(=O)N1CCC[C@H]1C(=O)N[C@@H](CCCCN)C(=O)O	false
CC[C@H](C)[C@H](NC(=O)[C@H](CCCNC(=N)N)NC(=O)[C@H](CC(C)C)N(C)C(=O)[C@@H](N)Cc1ccccc1)C(=O)N[C@@H](CCCNC(=N)N)C(=O)N1CCC[C@H]1C(=O)N[C@@H](CCCCN)C(=O)O	false

--- query ---
Regarding CC[C@H](C)[C@H](NC(=O)[C@H](CCCNC(=N)N)NC(=O)[C@H](CC(C)C)NC(=O)[C@H](N)Cc1ccccc1)C(=O)N[C@@H](CCCNC(=N)N)C(=O)N1CCC[C@H]1C(=O)N[C@@H](CCCCN)C(=O)O , kindly confirm whether its half-life is beneath 3 h.
false

----------
# IC50 per record follows
assayedTarget: BK receptors
assayText: Radioligand competition binding assay with [3H]BK in rat brain membranes
appliedConditions: read-out: IC50, BK receptors, [3H]BK; pH 6.8, rat brain membranes, 1 nM [3H]BK
Where a SMILES comes first, the peptide text is derived from it. [ ]: non-standard residue; d: D form. Orn = NCCC[C@H](N)C(=O)O
Just the number please, in nM, no unit attached.

See these solved cases before continuing.
compound	propertyName	quantityUnit	reportedMeasurement
CC[C@H](C)[C@H](NC(=O)[C@H](CCCNC(=N)N)NC(=O)[C@H](CC(C)C)NC(=O)[C@@H](N)Cc1ccccc1)C(=O)N[C@@H](CCCNC(=N)N)C(=O)N1CCC[C@H]1C(=O)N[C@@H](CCCCN)C(=O)O [compound 1, H-Phe-Leu-Arg-Ile-Arg-Pro-Lys-OH]	IC50	nM	150
CCCC[C@H](NC(=O)[C@@H](N)Cc1ccccc1)C(=O)N[C@@H](CCCNC(=N)N)C(=O)N[C@H](C(=O)N[C@@H](CCCNC(=N)N)C(=O)N1CCC[C@H]1C(=O)N[C@@H](CCCCN)C(=O)O)[C@@H](C)CC [compound 2, H-Phe-Nle-Arg-Ile-Arg-Pro-Lys-OH]	IC50	nM	160
CC[C@H](C)[C@H](NC(=O)[C@H](CCCNC(=N)N)NC(=O)[C@@H](CC(C)C)NC(=O)[C@@H](N)Cc1ccccc1)C(=O)N[C@@H](CCCNC(=N)N)C(=O)N1CCC[C@H]1C(=O)N[C@@H](CCCCN)C(=O)O [compound 16, H-Phe-D-Leu-Arg-Ile-Arg-Pro-Lys-OH]	IC50	nM	130

Would you kindly look at the next entry?
For the compound CC[C@H](C)[C@H](NC(=O)[C@H](CCCN)NC(=O)[C@H](CC(C)C)NC(=O)[C@@H](N)Cc1ccccc1)C(=O)N[C@@H](CCCN)C(=O)N1CCC[C@H]1C(=O)N[C@@H](CCCN)C(=O)O [compound 6, H-Phe-Leu-Orn-Ile-Orn-Pro-Orn-OH] (H-FL[Orn]I[Orn]P[Orn]-OH) , what IC50 is on record?
510

----------
assayText: In vitro stability in human plasma
Format: in vitro ADME
appliedConditions: human, plasma
propertyName: half-life

Requested read-out: half-life. Entry: CC[C@H](C)[C@H](NC(=O)[C@H](CCCNC(=N)N)NC(=O)[C@H](CC(C)C)NC(=O)[C@@H](N)Cc1ccccc1)C(=O)N[C@@H](CCCNC(=N)N)C(=O)N1CCC[C@H]1C(=O)N[C@@H](CCCCN)C(=O)O [compound 1, H-Phe-Leu-Arg-Ile-Arg-Pro-Lys-OH]
2.4 h

----------
assayedTarget: BK receptors
assayText: Radioligand competition binding assay with [3H]BK in rat brain membranes
appliedConditions: read-out: IC50, BK receptors, [3H]BK; pH 6.8, rat brain membranes, 1 nM [3H]BK
Where a SMILES comes first, the peptide text is derived from it. [ ]: non-standard residue; d: D form. Oic = O=C(O)[C@@H]1C[C@@H]2CCCC[C@@H]2N1
Reported IC50 values for a set of molecules
Could you give me the number in nM? Just the number is fine.

molecule	IC50 / nM
CC[C@H](C)[C@H](NC(=O)[C@H](CCCNC(=N)N)NC(=O)[C@H](CC(C)C)NC(=O)[C@@H](N)Cc1ccccc1)C(=O)N[C@@H](CCCNC(=N)N)C(=O)N1[C@H](C(=O)N[C@@H](CCCCN)C(=O)O)C[C@@H]2CCCC[C@@H]21 [compound 10, H-Phe-Leu-Arg-Ile-Arg-Oic-Lys-OH] (H-FLRIR[Oic]K-OH)	1500

Please turn your attention to the following entry.
What measured IC50 goes with CC[C@H](C)[C@H](NC(=O)[C@H](CCCNC(=N)N)NC(=O)[C@H](CC(C)C)NC(=O)[C@H](Cc1ccccc1)NC)C(=O)N[C@@H](CCCNC(=N)N)C(=O)N1CCC[C@H]1C(=O)N[C@@H](CCCCN)C(=O)O ?
870
